Each recorded value in this set is attributed to the DeepSol protein solubility set.

protocol_summary: soluble on expression in E. coli; label from the status in PepcDB or PDB records
attribute_measured: soluble on expression in E. coli

[
  {
    "polymer_sequence": "MAHHHHHHMVNLRLQVAVVGAPTVGKTAFVQMLHSNGTTFPKNYLMTLGCDFIVKEVPVDDDNTVEMIIFDVSGQREYEPMVSSYLQNTAVFIVMYDVSNKVTFEACARWVNQVRTNSKESVGILIANKSDLSDKAEVTDRQGKDLANANKMKFYKISTLRGVGITEPIDEIARHYVDAYQKRIEQLTQMR",
    "soluble on expression in E. coli": "not soluble"
  },
  {
    "polymer_sequence": "GMSVNGIEVAKPFIAATVNVLSTMAGIQPQPGKPYVKKNNVAKGDVSAVIGITGHKNGSISVTFTKSCAIALVKGMLGDDIQDILQDTKDAVGEVTNMISGQARAGLAEMGMVFQGSTPSVIMGDGHTISHVTKSPIMAIPFLTNHGEFTVEFCFE",
    "soluble on expression in E. coli": "soluble"
  },
  {
    "polymer_sequence": "MGSDKIHHHHHHGYQFTDVVKVPATPVKNQASTGTCWCFATTSFMESELLRMGKGTYDLSEMFIVRQKYMNQLQDNYVRQGRGNIGQGSLSHTFMNAFNQVGIVPEEVYSGINYDSDRHNHAEMVKYIKAIATTAVDMKKRSPEYYKLIDNLFDTYLGKLPEKFTYQGKEYTPKTFAASLGLNMDDYIELTSFTHHPYYQKFEVEVPDNWEHAQMYNLPLNEMMEVADYALNNGYTVCWDGDVSEKGFSFKNGVAINPEVKKVEDYSTTDRARFEKMDEKERLEEVYKFEKPFPEVNVTPQVRQEGFEAFVTTDDHLMHLTGIAKDQNGTKYYITKNSWGTERNTFGGYLNMSDSFVRAKTIYIMVHKDAIPKAIKSKLGI",
    "soluble on expression in E. coli": "not soluble"
  },
  {
    "polymer_sequence": "MGHHHHHHSHMARPWTEDGDWTEPGAPGGTEDRPSGGGKANRAHPIKQRPFPYEHKNTWSAQNCKNGSCVLDLSKCLFIQGKLLFAEPKDAGFPFSQDINSHLASLSMARNTSPTPDPTVREALCAPDNLNASIESQGQIKMYINEVCRETVSRCCNSFLQQAGLNLLISMTVINNMLAKSASDLKFPLISEGSGCAKVQVLKPLMGLSEKPVLAGELVGAQMLFSFMSLFIRNGNREILLETPAP",
    "soluble on expression in E. coli": "not soluble"
  },
  {
    "polymer_sequence": "MGSDKIHHHHHHMAKLMNNKLKKEIIDFAHSIGIDSIGFTTADPFDELKQKLEEYHAKGYASGFEESNISLRTEPKLSLPSARSIIAIAVGYPNKLKGAPKSVKGDRRGMFARASWGQDYHSIMRKRLDKLADFIKEKVPDVEIQSMVDTGVLSDRAVAERAGLGFTGRNGFVISPELGTWSYLGEMLVSIPFEPDDPLLDSCGDCTICVDRCPTGALVGNGQLNSQKCISFLTQTKGYLQDEYRYKIGNRLYGCDTCQQVCPKNRGINTQHDDIVLEPEILKPRLVPLLQMSNKKFKSTYGHLAGAWRGKKPIQRNAIIALAHFKEESAIPELKEVALNDPRPMIRGTAYWAIGQILEDDAISFIDEHYENEIEEVQLEMKKGLQMRREQK",
    "soluble on expression in E. coli": "not soluble"
  }
]

For the next question, use this sequence.
Data request: Form field: reported soluble on expression in E. coli of GMTRTMSFHKNCELCTTAGGEILWQDALCRVVHVENQDYPGFCRVILNRHVKEMSDLRPAERDHLMLVVFAVEEAVREVMRPDKINLASLGNMTPHVHWHVIPRFKRDRHFPNSVWGETKRESLPQALDQGSTTALKKAISVRLDQGEPVFMGM
Data returned: soluble
